Where do these numbers come from? They come from patent US20210060033A1.

tested on: pAmpC (PlasAmpC) isolates (n = 20); assay type: cell-based, Enterobacteriaceae; conditions: pAmpC n = 20; avibactam or clavulanic acid fixed at 4 μg/mL in combinations
metric name: Estimated MIC90 (µg/mL)
Answer with a number only, understood to be in µg/mL.

The molecule C[C@@H](O)[C@H]1C(=O)N2C(C(=O)O)=C(S[C@H]3CC[S@@+]([O-])C3)S[C@H]12 showed Estimated MIC90 equal to 0.5

// Estimated MIC90 lookup, molecule = C[C@@H](O)[C@H]1C(=O)N2C(C(=O)O)=C(SC3CN(C4=NCCS4)C3)[C@H](C)[C@H]12 , result: 0.25

###

tested on: KPC-positive isolates (n = 23); type: cell-based, Enterobacteriaceae; settings: KPC n = 23; avibactam or clavulanic acid fixed at 4 μg/mL in combinations
I'd be grateful if you could share measured Estimated MIC90 for these entries.

The compound C[C@@H](O)[C@H]1C(=O)N2C(C(=O)O)=C(SC3CN(C4=NCCS4)C3)[C@H](C)[C@H]12 [tebipenem] showed Estimated MIC90 equal to >32 µg/mL

Sample Nc1nc(/C(=C/CC(=O)O)C(=O)N[C@@H]2C(=O)N3C(C(=O)O)=CCS[C@H]23)cs1 [ceftibuten] ; Estimated MIC90 observed: >32 µg/mL

Lab book: Estimated MIC90 of C[C@@H](O)[C@H]1C(=O)N2C(C(=O)O)=C(S[C@H]3CC[S@@+]([O-])C3)S[C@H]12 [sulopenem] noted as >32 µg/mL

Just so you know, measured Estimated MIC90 for COCC1=C(C(=O)O)N2C(=O)[C@@H](NC(=O)/C(=N\OC)c3csc(N)n3)[C@H]2SC1 [cefpodoxime] came out at >32 µg/mL
